The origin of these recorded values is ChEMBL document CHEMBL4842346.

Measurement description: Metabolic stability in human liver microsomes assessed as half life at 100 uM in the presence of NADPH measured upto 60 mins by LC-MS/MS analysis
Type: ADME, Microsome
half-life at 100 µM for assorted molecules
Please respond with the number in min and leave the unit unwritten.

# query: half-life at 100 µM of entry Fc1ccc(C2(Cn3cncn3)COC(c3ccc(-c4cccc(F)c4)cc3)=N2)cc1 (stereo not given)
59.1

# query: half-life at 100 µM of entry CC[C@H](C)[C@@H](Cn1ccnc1)NC(=O)c1ccc(-c2ccccc2)cc1F
3.6

# query: half-life at 100 µM of entry c1ccc(-c2ccc(C3=N[C@@H](Cn4ccnc4)CO3)cc2)cc1
23.2

Here's the next entry for you.
# query: half-life at 100 µM of entry c1ccc(-c2ccc(C3=NC(Cn4ccnc4)(c4ccccc4)CO3)cc2)cc1 (stereo not given)
106

###

Tested on: Candida tropicalis
Measurement description: Antifungal activity against Candida tropicalis GIM2.183 assessed as inhibition of fungal growth by NCCLS protocol based method
Format: functional
MIC for assorted compounds
Please respond with the number in µg/mL and leave the unit unwritten.

Worked examples, 3 compounds total:
For Candida tropicalis, provide MIC of Fc1cc(-c2ccccc2)ccc1C1=NC(Cn2cncn2)(c2ccccc2)CO1 (stereo not given) please.
0.06

For Candida tropicalis, provide MIC of C[C@H]1OC(c2ccc(-c3ccccc3)cc2)=N[C@H]1Cn1ccnc1 please.
4

For Candida tropicalis, provide MIC of Fc1ccccc1-c1ccc(C2=NC(Cn3cncn3)(c3ccc(Cl)cc3)CO2)cc1 (stereo not given) please.
0.06

Here's the next entry for you.
For Candida tropicalis, provide MIC of c1ccc(-c2ccc(C3=NC(Cn4cncn4)(c4ccccc4)CO3)cc2)cc1 (stereo not given) please.
0.06

###

Target under test: Cytochrome P450 2D6 (Homo sapiens, UniProt P10635)
Sequence (P10635 whole entry): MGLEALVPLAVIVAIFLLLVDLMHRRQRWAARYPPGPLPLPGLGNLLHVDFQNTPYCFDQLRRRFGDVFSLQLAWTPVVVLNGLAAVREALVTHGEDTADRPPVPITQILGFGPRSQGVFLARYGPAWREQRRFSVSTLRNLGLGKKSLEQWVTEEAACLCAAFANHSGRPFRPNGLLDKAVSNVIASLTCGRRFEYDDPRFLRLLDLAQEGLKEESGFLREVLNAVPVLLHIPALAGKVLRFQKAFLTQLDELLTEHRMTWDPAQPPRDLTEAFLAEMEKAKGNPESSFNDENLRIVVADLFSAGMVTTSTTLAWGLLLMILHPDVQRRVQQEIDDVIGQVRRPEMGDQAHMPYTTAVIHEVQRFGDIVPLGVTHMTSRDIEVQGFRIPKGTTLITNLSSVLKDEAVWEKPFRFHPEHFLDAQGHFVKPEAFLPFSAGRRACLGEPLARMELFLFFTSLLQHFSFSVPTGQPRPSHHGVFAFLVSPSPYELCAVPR
Value kind: IC50 (µM)
Please respond with the number in µM and leave the unit unwritten.

For Cytochrome P450 2D6 (Homo sapiens, UniProt P10635), provide IC50 of Fc1ccc(C2(Cn3cncn3)COC(c3ccc(-c4cccc(F)c4)cc3)=N2)cc1 (configuration not stated) please.
40.1

###

System: Cryptococcus neoformans
Measurement description: Antifungal activity against Cryptococcus neoformans CGMCC2.3161 assessed as inhibition of fungal growth by NCCLS protocol based method
Type: functional
MIC for assorted compounds

Worked examples, 4 compounds total:
For Cryptococcus neoformans, provide MIC of CN(C)C(=O)C(Cn1ccnc1)NC(=O)c1ccc(-c2ccccc2)cc1 (stereo not given) please.
> 64 µg/mL

For Cryptococcus neoformans, provide MIC of CCC(C)n1ncn(-c2ccc(N3CCN(c4ccc(OCC5COC(Cn6cncn6)(c6ccc(Cl)cc6Cl)O5)cc4)CC3)cc2)c1=O (stereo not given) [ITRACONAZOLE] please.
< 0.125 µg/mL

For Cryptococcus neoformans, provide MIC of CC[C@H](C)[C@@H](Cn1ccnc1)NC(=O)c1ccc(-c2ccccc2)cc1F please.
1 µg/mL

For Cryptococcus neoformans, provide MIC of O=C(NC(Cn1ccnc1)C1COC1)c1ccc(-c2ccccc2)cc1 (stereo not given) please.
> 64 µg/mL

New cases:
For Cryptococcus neoformans, provide MIC of O=C(c1ccc(-c2ccccc2)cc1)N1CCC[C@@H]1Cn1ccnc1 please.
> 64 µg/mL

For Cryptococcus neoformans, provide MIC of OC(Cn1cncn1)(Cn1cncn1)c1ccc(F)cc1F [FLUCONAZOLE] please.
4 µg/mL

For Cryptococcus neoformans, provide MIC of c1ccc(-c2ccc(C3=N[C@@H](Cn4ccnc4)CO3)cc2)cc1 please.
> 64 µg/mL

For Cryptococcus neoformans, provide MIC of c1ccc(-c2ccc(C3=N[C@H](Cn4ccnc4)CO3)cc2)cc1 please.
> 64 µg/mL

For Cryptococcus neoformans, provide MIC of CC(C)(O)C(Cn1ccnc1)NC(=O)c1ccc(-c2ccccc2)cc1 (stereo not given) please.
> 64 µg/mL

For Cryptococcus neoformans, provide MIC of O=C(c1ccc(-c2ccccc2)cc1)N1CCC[C@H]1Cn1ccnc1 please.
> 64 µg/mL
